# System: H3255
# assay_remarks: relative viability (nuclei count vs DMSO), 5 days (fraction); higher = more cells survive
# assay_context: first compound 6.325 µM
measured_parameter: relative viability
Write the number on its own, no unit after it.

query: Recorded relative viability for COCC1(CO)C(=O)C2CCN1CC2 (stereo unspecified) [PRIMA-1MET] + CC(=O)c1c(C)c2cnc(Nc3ccc(N4CCNCC4)cn3)nc2n(C2CCCC2)c1=O [Palbociclib] (partner 0.5 µM) , please?
result: 0.294

query: Request: COCC1(CO)C(=O)C2CCN1CC2 (stereo unspecified) [PRIMA-1MET] + O=C(CCCCCCC(=O)Nc1ccccc1)NO [Vorinostat] (partner 1 µM)
result: 0.901

query: Request: COCC1(CO)C(=O)C2CCN1CC2 (stereo unspecified) [PRIMA-1MET] + NC(=O)Nc1cc(-c2cccc(F)c2)sc1C(=O)N[C@H]1CCCNC1 [AZD7762] (partner 0.2 µM)
result: 1.06

query: Now give it for COCC1(CO)C(=O)C2CCN1CC2 (stereo unspecified) [PRIMA-1MET] + CS(=O)(=O)N1CCN(Cc2cc3nc(-c4cccc5[nH]ncc45)nc(N4CCOCC4)c3s2)CC1 [Pictilisib] (partner 1 µM) too.
result: 0.469

query: Also need COCC1(CO)C(=O)C2CCN1CC2 (stereo unspecified) [PRIMA-1MET] + O=C(c1cc(Cc2n[nH]c(=O)c3ccccc23)ccc1F)N1CCN(C(=O)C2CC2)CC1 [Olaparib] (partner 8 µM) , thanks.
result: 0.606

query: And the next one, COCC1(CO)C(=O)C2CCN1CC2 (stereo unspecified) [PRIMA-1MET] + CC(C)C[C@H](NC(=O)[C@H](Cc1ccccc1)NC(=O)c1cnccn1)B(O)O [Bortezomib] (partner 0.002 µM) ?
result: 0.815

###

# Test system: LU99A
# assay_remarks: relative viability (nuclei count vs DMSO), 5 days (fraction); higher = more cells survive
# assay_context: first compound 0.253 µM
measured_parameter: relative viability
No unit in the answer, please; the number alone is enough.

query: Report relative viability for O=c1cc(-c2cccc3c2Sc2ccccc2S3)oc(N2CCOCC2)c1 + CC(C)C[C@H](NC(=O)[C@H](Cc1ccccc1)NC(=O)c1cnccn1)B(O)O [Bortezomib] (partner 0.002 µM) please.
result: 1.07

query: Now consider COc1nc(C)cnc1NS(=O)(=O)c1cccnc1-c1ccc(-c2nnco2)cc1 [Zibotentan] + NC(=O)Nc1cc(-c2cccc(F)c2)sc1C(=O)N[C@H]1CCCNC1 [AZD7762] (partner 0.2 µM) and answer again.
result: 0.412

query: Repeat with COc1nc(C)cnc1NS(=O)(=O)c1cccnc1-c1ccc(-c2nnco2)cc1 [Zibotentan] + COc1cc2c(Oc3ccc(NC(=O)C4(C(=O)Nc5ccc(F)cc5)CC4)cc3F)ccnc2cc1OCCCN1CCOCC1 [Foretinib] (partner 0.25 µM)
result: 0.8

query: Also check O=c1cc(-c2cccc3c2Sc2ccccc2S3)oc(N2CCOCC2)c1 + Cc1nc(Nc2ncc(C(=O)Nc3c(C)cccc3Cl)s2)cc(N2CCN(CCO)CC2)n1 [Dasatinib] (partner 0.075 µM)
result: 0.61

query: # iterate: O=c1cc(-c2cccc3c2Sc2ccccc2S3)oc(N2CCOCC2)c1 + O=C(c1cc(Cc2n[nH]c(=O)c3ccccc23)ccc1F)N1CCN(C(=O)C2CC2)CC1 [Olaparib] (partner 8 µM)
result: 0.298

query: Check COc1nc(C)cnc1NS(=O)(=O)c1cccnc1-c1ccc(-c2nnco2)cc1 [Zibotentan] + N=C(N)NC(=N)NCCc1ccccc1 [Phenformin] (partner 250 µM) too.
result: 0.853

query: Next molecule: COc1nc(C)cnc1NS(=O)(=O)c1cccnc1-c1ccc(-c2nnco2)cc1 [Zibotentan] + C[C@@H](Oc1cc(-c2cnn(C3CCNCC3)c2)cnc1N)c1c(Cl)ccc(F)c1Cl [Crizotinib] (partner 1 µM)
result: 0.527

query: Thanks! And COc1nc(C)cnc1NS(=O)(=O)c1cccnc1-c1ccc(-c2nnco2)cc1 [Zibotentan] + CC(=O)c1c(C)c2cnc(Nc3ccc(N4CCNCC4)cn3)nc2n(C2CCCC2)c1=O [Palbociclib] (partner 0.5 µM) ?
result: 0.442

query: Consider next the molecule O=c1cc(-c2cccc3c2Sc2ccccc2S3)oc(N2CCOCC2)c1 + COc1cccc2cc(-c3nc([C@H]4CC[C@H](C(=O)O)CC4)n4ncnc(N)c34)[nH]c12 [OSI-027] (partner 0.5 µM) in the same way.
result: 0.285

query: Another molecule to look at: O=c1cc(-c2cccc3c2Sc2ccccc2S3)oc(N2CCOCC2)c1 + Nc1nc2[nH]cc(CCc3ccc(C(=O)N[C@@H](CCC(=O)O)C(=O)O)cc3)c2c(=O)[nH]1 [Pemetrexed] (partner 0.2 µM)
result: 0.169

query: Note, next up: O=c1cc(-c2cccc3c2Sc2ccccc2S3)oc(N2CCOCC2)c1 + CC(=O)Nc1cccc(-n2c(=O)n(C3CC3)c(=O)c3c(Nc4ccc(I)cc4F)n(C)c(=O)c(C)c32)c1 [Trametinib] (partner 0.02 µM)
result: 0.624

query: Note, next up: COc1nc(C)cnc1NS(=O)(=O)c1cccnc1-c1ccc(-c2nnco2)cc1 [Zibotentan] + CC(C)C[C@H](NC(=O)[C@H](Cc1ccccc1)NC(=O)c1cnccn1)B(O)O [Bortezomib] (partner 0.002 µM)
result: 1.13

query: Next record, please: O=c1cc(-c2cccc3c2Sc2ccccc2S3)oc(N2CCOCC2)c1 + C[C@@H](Oc1cc(-c2cnn(C3CCNCC3)c2)cnc1N)c1c(Cl)ccc(F)c1Cl [Crizotinib] (partner 1 µM)
result: 0.574

query: Repeat with O=c1cc(-c2cccc3c2Sc2ccccc2S3)oc(N2CCOCC2)c1 + NC(=O)Nc1cc(-c2cccc(F)c2)sc1C(=O)N[C@H]1CCCNC1 [AZD7762] (partner 0.2 µM)
result: 0.349

query: Repeat for the following molecule: COc1nc(C)cnc1NS(=O)(=O)c1cccnc1-c1ccc(-c2nnco2)cc1 [Zibotentan] + Nc1ncn([C@H]2C[C@H](O)[C@@H](CO)O2)c(=O)n1 [Decitabine] (partner 2 µM)
result: 0.848

query: Further, for COc1nc(C)cnc1NS(=O)(=O)c1cccnc1-c1ccc(-c2nnco2)cc1 [Zibotentan] + O=C(CCCCCCC(=O)Nc1ccccc1)NO [Vorinostat] (partner 1 µM) ?
result: 0.537

Values compiled from the supplement of paper PMC10307832.
